Entries and their IC50 values follow.
# STUDY_SYSTEM: EP4 (Homo sapiens, UniProt P35408)
# Sequence (P35408 whole entry): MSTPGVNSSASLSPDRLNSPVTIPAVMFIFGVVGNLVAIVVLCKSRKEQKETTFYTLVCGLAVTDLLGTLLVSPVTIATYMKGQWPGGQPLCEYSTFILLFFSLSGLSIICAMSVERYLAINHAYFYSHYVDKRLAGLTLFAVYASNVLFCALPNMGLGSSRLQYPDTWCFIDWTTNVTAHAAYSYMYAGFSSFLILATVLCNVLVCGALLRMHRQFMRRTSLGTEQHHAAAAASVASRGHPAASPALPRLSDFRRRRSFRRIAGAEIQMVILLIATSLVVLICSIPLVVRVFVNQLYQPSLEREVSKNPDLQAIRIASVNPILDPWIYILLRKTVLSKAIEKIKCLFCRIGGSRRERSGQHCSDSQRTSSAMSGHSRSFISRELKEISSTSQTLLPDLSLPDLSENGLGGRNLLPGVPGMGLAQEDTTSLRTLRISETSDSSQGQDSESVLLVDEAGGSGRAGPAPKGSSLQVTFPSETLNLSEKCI
# ASSAY_SUMMARY: Functional calcium flux assay, EP4
# CONDITION_PARAMETERS: stably transfected HEK293 cells; PGE2 10 nM; read-out: EP4 Ca2+-flux assay IC50

- COMPOUND: "CCNC(=O)c1cc(-c2ccc(Cn3ccc4c(F)ccc(C(=O)NC5CC6(C5)CC(C(=O)O)C6)c43)cc2)ccn1 (stereo not drawn) [Example 61]"
  IC50: "< 1 nM"
- COMPOUND: "COc1ccc2ccc(Cn3ccc4c(F)ccc(C(=O)NC5CC6(C5)CC(C(=O)O)C6)c43)cc2c1 (stereo not drawn) [Example 40]"
  IC50: "< 1 nM"
- COMPOUND: "COc1cccc(-c2ccc(Cn3ccc4c(OC)ncc(C(=O)NC5CC6(C5)CC(C(=O)O)C6)c43)cc2)n1 (stereo not drawn) [Example 92]"
  IC50: "< 1 nM"
- COMPOUND: "CC(c1ccc(-c2ccccc2)cc1)n1ccc2c(F)ccc(C(=O)NC3CC4(C3)CC(C(=O)O)C4)c21 (single isomer, unassigned) [Example 127]"
  IC50: "1.2 nM"
- COMPOUND: "CCOc1nccc(-c2ccc(Cn3ccc4c(F)ccc(C(=O)NC5CC6(C5)CC(C(=O)O)C6)c43)cc2)n1 (stereo not drawn) [Example 58]"
  IC50: "2.4 nM"

Moving on to the next compound.
The compound listed as CS(=O)(=O)NC(=O)C1CC2(CC(NC(=O)c3ccc(F)c4ccn(Cc5ccc(OC(F)(F)F)cc5)c34)C2)C1 (stereo not drawn) [Example 111] shows IC50 equal to 1.2 nM
